Protocol Description: small-molecule microarray binders of probe aDKK1, primary screen, biochemical, biotinylated probe, 635/667 nm fluorescence (AID 1099);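 note: score merges 667nm spot fluorescence with signal to noise across triplicate slides; reference of the scale not given here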
Cond: higher = more signal
Given measured composite z-score, output t if it is greater than or equal to 0.4 and f if not.

Please tell me: is the compound CC1C2C(CCCO)=CC(C3C(=O)N(C(N)=O)C(=O)C23)N1Cc1cccc(OC(F)(F)F)c1 (centres undefined) at or over 0.4 in terms of composite z-score?
f

Please tell me: is the compound COCCOC(=O)N1C(=O)[C@@]2(c3cc(C#CCNC(N)=O)ccc31)[C@H](C(=O)N1CCN(c3ncccn3)CC1)[C@H]1C(=O)O[C@H](c3ccccc3)[C@H](c3ccccc3)N1[C@@H]2c1ccc(O)cc1 at or over 0.4 in terms of composite z-score?
f

Please tell me: is the compound COCCOC(=O)N1C(=O)[C@@]2(c3cc(C#CC4=CCCCC4)ccc31)[C@H](C(=O)N1CCCCCCC1)[C@H]1C(=O)O[C@H](c3ccccc3)[C@H](c3ccccc3)N1[C@@H]2c1ccccc1OCCO at or over 0.4 in terms of composite z-score?
t

---
Please tell me: is the compound CC(C)(C)OC(=O)CC[C@]1(C(=O)N2CCOCC2)COC(c2ccc(OCCCO)cc2)=N1 at or over 0.4 in terms of composite z-score?
f

Please tell me: is the compound COC(=O)c1ccc(OC)c(/C=C\CC(OC(=O)c2ccncc2)c2ccccc2)c1 (centres undefined) at or over 0.4 in terms of composite z-score?
f

Please tell me: is the compound NCCCCCCNC(=O)[C@@H]1C[C@@H]2C(=O)NCC(=O)N2[C@@H]1c1cccc(OCCO)c1 at or over 0.4 in terms of composite z-score?
t

Please tell me: is the compound C=CCNC(=O)[C@H]1[C@@H]2C(=O)O[C@@H](c3ccccc3)[C@@H](c3ccccc3)N2[C@@H](c2ccc(OCCO)cc2)[C@]12C(=O)Nc1ccc(C#Cc3ccc(OC)cc3)cc12 at or over 0.4 in terms of composite z-score?
t
